Target or test system: SLAMF9 protein (UniProt Q96A28 19-236, limits assumed)
Sequence (Q96A28 19-236 limits assumed): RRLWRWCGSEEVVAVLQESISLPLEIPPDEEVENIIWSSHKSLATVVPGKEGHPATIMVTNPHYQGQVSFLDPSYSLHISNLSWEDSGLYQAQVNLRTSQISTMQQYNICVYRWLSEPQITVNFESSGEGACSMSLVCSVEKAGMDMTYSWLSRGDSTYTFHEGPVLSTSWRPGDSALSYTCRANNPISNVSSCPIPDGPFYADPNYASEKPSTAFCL
Assay procedure: phage clone on SLAMF9 protein

{"Binder": "ET200-100 (scFv, screened as phage clone; entry is VL-linker-VH-His tag-HA tag) scFv: NFMLTQPHSVSESPGKTVTISCTRSSGSIASNFVQWYQQRPGSAPTPMIYEDNNRPPGVPDRFSASVDSSSNSASLTISGLKTEDEADYYCQSYDTSNVVFGGGTKLTVLGSRGGGGSGGGGSGGGGSLEMAEVQLVESGGGLVQPGGSLRLSCAASGFTFSSYEMNWVRQAPGKGLEWVSYISSSGSTIYYADSVKGRFTISRDNAKNSLYLQMNSLRAEDTAVYYCARWDYGMDVWGQGTTVTVSSTSGQAGQHHHHHHGAYPYDVPDYAS", "binding result": "no binding"}
{"Binder": "ET200-098 (scFv, screened as phage clone; entry is VL-linker-VH-His tag-HA tag) scFv: QPVLTQPPSVSKGLRQTATLTCTGNSNNVGNLGVAWLQQHQGHPPKLLSYRNNNRPSGISERLSASRSGNTASLTITGLQPEDEADYYCSAWDSSLSAWVFGGGTKLTVLGSRGGGGSGGGGSGGGGSLEMAEVQLVESGGVVVQPGGSLRLSCAASGFTFDDYAMHWVRQAPGKGLEWVSLINWDGGSTYYADSVKGRFTISRDNSKNSLYLQMNSLRAEDTALYYCAKGMGLRAFDYWGQGTLVTVSSTSGQAGQHHHHHHGAYPYDVPDYAS", "binding result": "no binding"}
